# Test system: 857933-349-R-J2-PDC complex spheroid viability
# Assay comment: Anticancer human tumor 857933-349-R-J2-PDC patient-derived colon adenocarcinoma cell line growth inhibition [POLQ]
# Run parameters: curve of first compound; second compound 0.316 µM
// IC50 lookup, one value per entry

>  <Molecule>
CC1COCCN1c1cc(C2(O)CC3CCC(C2)O3)c2cnn(-c3ccn[nH]3)c2n1 (stereo unspecified) + Cc1cccc(N(C)C(=O)C2C(O)CCN2c2nc(C)cc(C(F)(F)F)c2C#N)c1

>  <Unit name>
nM

>  <Censoring sign>
=

>  <IC50>
291

$$$$
>  <Molecule>
CC(C)n1c(=O)n(C)c2cnc3cc(F)c(-c4ccc(OCCCN5CCCCC5)nc4)cc3c21 + Cc1cccc(N(C)C(=O)C2C(O)CCN2c2nc(C)cc(C(F)(F)F)c2C#N)c1

>  <Unit name>
nM

>  <Censoring sign>
>

>  <IC50>
10000

$$$$
>  <Molecule>
CC1COCCN1c1cc(C2(S(C)(=N)=O)CC2)nc(-c2ccnc3[nH]ccc23)n1 (stereo unspecified) + Nc1ccc(C#CCN(C(=O)Cc2ncc(C(F)(F)F)cc2C(F)(F)F)c2ccc(F)cc2)nn1

>  <Unit name>
nM

>  <Censoring sign>
=

>  <IC50>
6970

$$$$
>  <Molecule>
CNCc1ccc(-c2[nH]c3cc(F)cc4c3c2CCNC4=O)cc1 + Nc1ccc(C#CCN(C(=O)Cc2ncc(C(F)(F)F)cc2C(F)(F)F)c2ccc(F)cc2)nn1

>  <Unit name>
nM

>  <Censoring sign>
>

>  <IC50>
10000

$$$$
>  <Molecule>
O=c1[nH]cc(F)c(=O)[nH]1 + Nc1ccc(C#CCN(C(=O)Cc2ncc(C(F)(F)F)cc2C(F)(F)F)c2ccc(F)cc2)nn1

>  <Unit name>
nM

>  <Censoring sign>
=

>  <IC50>
2450

$$$$
>  <Molecule>
COc1cccc(OCCCN)c1-c1cc(Nc2cnc(C#N)cn2)n[nH]1 + Nc1ccc(C#CCN(C(=O)Cc2ncc(C(F)(F)F)cc2C(F)(F)F)c2ccc(F)cc2)nn1

>  <Unit name>
nM

>  <Censoring sign>
>

>  <IC50>
1000

$$$$

* * *

# Tested on: 857933-349-R-J2-PDC complex spheroid viability
# Assay comment: Anticancer human tumor 857933-349-R-J2-PDC cell line growth inhibition [POLQ];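 note: spheroids exposed to compounds for seven days before readout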
# Run parameters: second compound 0.0316 µM; first compound 0.0316 µM; stronger effect = lower value
// viability, T/C lookup, one value per entry

>  <Compound>
O=c1[nH]cc(F)c(=O)[nH]1 + Cc1cccc(N(C)C(=O)C2C(O)CCN2c2nc(C)cc(C(F)(F)F)c2C#N)c1

>  <Target or system>
857933-349-R-J2-PDC complex spheroid viability

>  <Unit name>
%

>  <viability, T/C>
90.7

$$$$
>  <Compound>
C=CC(=O)N1CCN(c2nc(=O)n(-c3c(C)ccnc3C(C)C)c3nc(-c4c(O)cccc4F)c(F)cc23)C(C)C1 (stereo not drawn) + COC1C(OC(N)=O)C(O)C(Oc2ccc3c(O)c(NC(=O)c4ccc(O)c(CC=C(C)C)c4)c(=O)oc3c2C)OC1(C)C

>  <Target or system>
857933-349-R-J2-PDC complex spheroid viability

>  <Unit name>
%

>  <viability, T/C>
105

$$$$
>  <Compound>
COc1cccc2c1C(=O)c1c(O)c3c(c(O)c1C2=O)CC(O)(C(=O)CO)CC3OC1CC(N)C(O)C(C)O1 (stereo not drawn) + COC1C(OC(N)=O)C(O)C(Oc2ccc3c(O)c(NC(=O)c4ccc(O)c(CC=C(C)C)c4)c(=O)oc3c2C)OC1(C)C

>  <Target or system>
857933-349-R-J2-PDC complex spheroid viability

>  <Unit name>
%

>  <viability, T/C>
73.1

$$$$

* * *

// viability, T/C lookup, one value per entry
# Tested on: 857933-349-R-J2-PDC complex spheroid viability
# Assay comment: Anticancer human tumor 857933-349-R-J2-PDC cell line growth inhibition [POLQ];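 note: spheroids exposed to compounds for seven days before readout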
# Run parameters: second compound 3.16 µM; first compound 0.0316 µM; stronger effect = lower value
# Description: Multicellular complex tumor spheroid response to Polymerase (POL) inhibitors (novobiocin, ART-558, RP6685) in combination with a variety of drugs and investigational agents in selected tumor cell lines The POL inhibitors (novobiocin, ART-558, and RP6685) were evaluated both individually and in combination with standard of care and investigational anticancer small molecules within a complex spheroid model of solid tumors. . […]

>  <Compound>
CCc1cc2c(N3CCc4c(cc(Cn5ccnc5)cc4-c4cn(C)nc4C(F)(F)F)C3=O)cc(C)nc2c(OC)n1 + Nc1ccc(C#CCN(C(=O)Cc2ncc(C(F)(F)F)cc2C(F)(F)F)c2ccc(F)cc2)nn1

>  <Target or system>
857933-349-R-J2-PDC complex spheroid viability

>  <viability, T/C / %>
87.8

$$$$
>  <Compound>
C#Cc1c(F)ccc2cc(O)cc(-c3ncc4c(N5CC6CCC(C5)N6)nc(OCC56CCCN5CC(F)C6)nc4c3F)c12 (stereo not given) + Cc1cccc(N(C)C(=O)C2C(O)CCN2c2nc(C)cc(C(F)(F)F)c2C#N)c1

>  <Target or system>
857933-349-R-J2-PDC complex spheroid viability

>  <viability, T/C / %>
97.7

$$$$
>  <Compound>
CCc1cc2c(N3CCc4c(cc(Cn5ccnc5)cc4-c4cn(C)nc4C(F)(F)F)C3=O)ccnc2c(OC)n1 + COC1C(OC(N)=O)C(O)C(Oc2ccc3c(O)c(NC(=O)c4ccc(O)c(CC=C(C)C)c4)c(=O)oc3c2C)OC1(C)C

>  <Target or system>
857933-349-R-J2-PDC complex spheroid viability

>  <viability, T/C / %>
96.3

$$$$
>  <Compound>
COc1cccc2c1C(=O)c1c(O)c3c(c(O)c1C2=O)CC(O)(C(=O)CO)CC3OC1CC(N)C(O)C(C)O1 (stereo not given) + COC1C(OC(N)=O)C(O)C(Oc2ccc3c(O)c(NC(=O)c4ccc(O)c(CC=C(C)C)c4)c(=O)oc3c2C)OC1(C)C

>  <Target or system>
857933-349-R-J2-PDC complex spheroid viability

>  <viability, T/C / %>
68.3

$$$$
>  <Compound>
CCc1cc2c(N3CCc4c(cc(Cn5ccnc5)cc4-c4cn(C)nc4C(F)(F)F)C3=O)cc(C)nc2c(OC)n1 + Cc1cccc(N(C)C(=O)C2C(O)CCN2c2nc(C)cc(C(F)(F)F)c2C#N)c1

>  <Target or system>
857933-349-R-J2-PDC complex spheroid viability

>  <viability, T/C / %>
107

$$$$

* * *

# Test system: 857933-349-R-J2-PDC complex spheroid viability
# Assay comment: Anticancer human tumor 857933-349-R-J2-PDC cell line growth inhibition [POLQ];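 note: spheroids exposed to compounds for seven days before readout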
# Run parameters: curve of first compound; second compound 1 µM

>  <Molecule>
O=C(Nc1ccc(O)c(NS(=O)(=O)c2ccc(F)cc2)c1)c1ccc(-c2ccccc2)cc1 + Nc1ccc(C#CCN(C(=O)Cc2ncc(C(F)(F)F)cc2C(F)(F)F)c2ccc(F)cc2)nn1

>  <IC50>
> 10 µM

$$$$
>  <Molecule>
CC1COCCN1c1cc(C2(O)CC3CCC(C2)O3)c2cnn(-c3ccn[nH]3)c2n1 (stereo not given) + COC1C(OC(N)=O)C(O)C(Oc2ccc3c(O)c(NC(=O)c4ccc(O)c(CC=C(C)C)c4)c(=O)oc3c2C)OC1(C)C

>  <IC50>
0.285 µM

$$$$
>  <Molecule>
CNCc1ccc(-c2[nH]c3cc(F)cc4c3c2CCNC4=O)cc1 + COC1C(OC(N)=O)C(O)C(Oc2ccc3c(O)c(NC(=O)c4ccc(O)c(CC=C(C)C)c4)c(=O)oc3c2C)OC1(C)C

>  <IC50>
> 10 µM

$$$$
>  <Molecule>
COc1cc2cc(C(=O)CCC(=O)O)sc2cc1OC + COC1C(OC(N)=O)C(O)C(Oc2ccc3c(O)c(NC(=O)c4ccc(O)c(CC=C(C)C)c4)c(=O)oc3c2C)OC1(C)C

>  <IC50>
> 10 µM

$$$$
>  <Molecule>
CC(=O)O[C@H]1C(=O)[C@@]2(C)[C@H]([C@H](OC(=O)c3ccccc3)[C@]3(O)C[C@H](OC(=O)[C@H](O)[C@@H](NC(=O)c4ccccc4)c4ccccc4)C(C)=C1C3(C)C)[C@]1(OC(C)=O)CO[C@@H]1C[C@@H]2O + Cc1cccc(N(C)C(=O)C2C(O)CCN2c2nc(C)cc(C(F)(F)F)c2C#N)c1

>  <IC50>
< 0.00949 µM

$$$$

* * *

# Tested on: 857933-349-R-J2-PDC complex spheroid viability
# Assay comment: Anticancer human tumor 857933-349-R-J2-PDC cell line growth inhibition [POLQ];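 note: spheroids exposed to compounds for seven days before readout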
# Run parameters: second compound 1 µM; first compound 0.0316 µM; stronger effect = lower value
Reported endpoint: viability, T/C

>  <Molecule>
COc1cccc(OCCCN)c1-c1cc(Nc2cnc(C#N)cn2)n[nH]1 + COC1C(OC(N)=O)C(O)C(Oc2ccc3c(O)c(NC(=O)c4ccc(O)c(CC=C(C)C)c4)c(=O)oc3c2C)OC1(C)C

>  <Target or system>
857933-349-R-J2-PDC complex spheroid viability

>  <Reported endpoint>
viability, T/C

>  <Assay value>
52.8%

$$$$
>  <Molecule>
CCc1cc2c(N3CCc4c(cc(Cn5ccnc5)cc4-c4cn(C)nc4C(F)(F)F)C3=O)cc(C)nc2c(OC)n1 + Nc1ccc(C#CCN(C(=O)Cc2ncc(C(F)(F)F)cc2C(F)(F)F)c2ccc(F)cc2)nn1

>  <Target or system>
857933-349-R-J2-PDC complex spheroid viability

>  <Reported endpoint>
viability, T/C

>  <Assay value>
95.9%

$$$$
>  <Molecule>
O=C(c1cc(Cc2n[nH]c(=O)c3ccccc23)ccc1F)N1CCN(C(=O)C2CC2)CC1 + COC1C(OC(N)=O)C(O)C(Oc2ccc3c(O)c(NC(=O)c4ccc(O)c(CC=C(C)C)c4)c(=O)oc3c2C)OC1(C)C

>  <Target or system>
857933-349-R-J2-PDC complex spheroid viability

>  <Reported endpoint>
viability, T/C

>  <Assay value>
93.4%

$$$$
>  <Molecule>
CC1COCCN1c1cc(C2(O)CC3CCC(C2)O3)c2cnn(-c3ccn[nH]3)c2n1 (stereo not given) + Cc1cccc(N(C)C(=O)C2C(O)CCN2c2nc(C)cc(C(F)(F)F)c2C#N)c1

>  <Target or system>
857933-349-R-J2-PDC complex spheroid viability

>  <Reported endpoint>
viability, T/C

>  <Assay value>
67.1%

$$$$
>  <Molecule>
CCc1cc2c(N3CCc4c(cc(Cn5ccnc5)cc4-c4cn(C)nc4C(F)(F)F)C3=O)cc(C)nc2c(OC)n1 + Cc1cccc(N(C)C(=O)C2C(O)CCN2c2nc(C)cc(C(F)(F)F)c2C#N)c1

>  <Target or system>
857933-349-R-J2-PDC complex spheroid viability

>  <Reported endpoint>
viability, T/C

>  <Assay value>
99.6%

$$$$
>  <Molecule>
COc1cc(C2c3cc4c(cc3C(OC3OC5COC(C)OC5C(O)C3O)C3COC(=O)C23)OCO4)cc(OC)c1O (stereo not given) + COC1C(OC(N)=O)C(O)C(Oc2ccc3c(O)c(NC(=O)c4ccc(O)c(CC=C(C)C)c4)c(=O)oc3c2C)OC1(C)C

>  <Target or system>
857933-349-R-J2-PDC complex spheroid viability

>  <Reported endpoint>
viability, T/C

>  <Assay value>
81.9%

$$$$
>  <Molecule>
COc1cccc2c1C(=O)c1c(O)c3c(c(O)c1C2=O)CC(O)(C(=O)CO)CC3OC1CC(N)C(O)C(C)O1 (stereo not given) + Cc1cccc(N(C)C(=O)C2C(O)CCN2c2nc(C)cc(C(F)(F)F)c2C#N)c1

>  <Target or system>
857933-349-R-J2-PDC complex spheroid viability

>  <Reported endpoint>
viability, T/C

>  <Assay value>
74.1%

$$$$
>  <Molecule>
CNCc1ccc(-c2[nH]c3cc(F)cc4c3c2CCNC4=O)cc1 + Nc1ccc(C#CCN(C(=O)Cc2ncc(C(F)(F)F)cc2C(F)(F)F)c2ccc(F)cc2)nn1

>  <Target or system>
857933-349-R-J2-PDC complex spheroid viability

>  <Reported endpoint>
viability, T/C

>  <Assay value>
93.4%

$$$$
>  <Molecule>
CC1COCCN1c1cc(C2(S(C)(=N)=O)CC2)nc(-c2ccnc3[nH]ccc23)n1 (stereo not given) + Nc1ccc(C#CCN(C(=O)Cc2ncc(C(F)(F)F)cc2C(F)(F)F)c2ccc(F)cc2)nn1

>  <Target or system>
857933-349-R-J2-PDC complex spheroid viability

>  <Reported endpoint>
viability, T/C

>  <Assay value>
100%

$$$$
>  <Molecule>
CC[C@@]1(O)C(=O)OCc2c1cc1n(c2=O)Cc2cc3c(CN(C)C)c(O)ccc3nc2-1 + Nc1ccc(C#CCN(C(=O)Cc2ncc(C(F)(F)F)cc2C(F)(F)F)c2ccc(F)cc2)nn1

>  <Target or system>
857933-349-R-J2-PDC complex spheroid viability

>  <Reported endpoint>
viability, T/C

>  <Assay value>
74%

$$$$
